System: Aspergillus fumigatus
Experiment: Antifungal activity against Aspergillus fumigatus AS 3.3913 assessed as reduction in fungal growth by CLSI protocol based broth microdilution method
Assay type: functional
Observation type: log10 of MIC (log10 of the value in µg/mL)
The base-10 logarithm of MIC, taken with MIC in µg/mL, is what appears here.

Structure notation | log10 of MIC
Cc1ccc(Nc2cc(-c3cccs3)nc3ccccc23)cc1.Cl | 1.20

Quick check: log10 of MIC of CCN(c1ccc(C)cc1)c1cc(-c2ccc(C)cc2)nc2ccccc12 ? 2.71

Repeat for the following compound: Cc1ccc(Nc2cc(-c3ccc(C)cc3)nc3ccccc23)cc1.Cl 0.60

Repeat for the following compound: Cc1ccc(Nc2cc(-c3ccc4ccccc4c3)nc3ccccc23)cc1.Cl 1.81

Repeat for the following compound: Cc1ccc(Nc2cc(-c3ccccc3C(F)(F)F)nc3ccccc23)cc1.Cl 2.11
